Hey, just so you know, these numbers are from paper PMC8998904.

- measurementProtocol: Plasma pharmacokinetic profile in mice (I.V. and P.O.)
- statedConditions: mouse, plasma, po, 20 mg/kg, AUC0–t, mice, P.O., n=3
measureName: AUC(0-t) (ng·h/mL)
Entry rule: numbers only, all in ng·h/mL.

Read off the recorded AUC(0-t) for COc1nc2cc(F)c(F)cc2nc1NC(=O)NC1CCN(Cc2cc3ccccc3[nH]2)CC1 [KRX-104130]
1720

* * *

- systemTested: human recombinant MCH-1 receptor (Homo sapiens)
- Construct: purchased Euroscreen S.A. (PerkinElmer)
- Sequence (Q99705 whole entry): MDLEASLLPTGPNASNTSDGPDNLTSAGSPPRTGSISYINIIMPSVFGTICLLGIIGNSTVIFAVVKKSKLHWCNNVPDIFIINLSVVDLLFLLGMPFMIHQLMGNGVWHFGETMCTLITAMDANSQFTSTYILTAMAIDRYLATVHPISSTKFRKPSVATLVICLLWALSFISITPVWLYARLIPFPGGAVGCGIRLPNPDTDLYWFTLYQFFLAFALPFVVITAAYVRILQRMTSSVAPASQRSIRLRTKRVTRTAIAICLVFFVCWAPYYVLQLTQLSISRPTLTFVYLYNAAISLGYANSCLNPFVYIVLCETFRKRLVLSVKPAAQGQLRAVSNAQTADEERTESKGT
- measurementProtocol: Time-resolved fluorescence (TRF)-based MCHR1 receptor-binding assay with Eu-MCH
- statedConditions: 10 μM; TRF MCHR1 binding; read-out: inhibition rate (%) at 10 μM
measureName: inhibition at 10 µM (%)
Record the value in %, omitting the unit from your answer.

Here's what some known entries look like.
>>> print(df.to_string())
                                   compound  unit  value
0  COc1nc2cc(F)c(F)cc2nc1NC(=O)NC1CCN(Cc2cc3ccccc3[nH]2)CC1 [KRX-104130]     %   97.1
1  COc1nc2cc(F)c(F)cc2nc1NC(=O)NC1CCN(Cc2cn(C(C)=O)c3ccccc23)CC1 [KRX-104165]     %   94.3
2  COc1nc2cc(F)c(F)cc2nc1NC(=O)NC1CCN(Cc2ccc3[nH]ccc3c2)CC1 [KRX-104156]     %    100
3  CCN(CC)CCN(C)c1cnc2cc(NC(=O)c3ccc(-c4ccc(Cl)cc4)cc3)ccc2n1 [KRX-104137]     %     96

Read off the recorded inhibition at 10 µM for COc1nc2cc(F)c(F)cc2nc1NC(=O)NC1CCN(Cc2ccc3[nH]ncc3c2)CC1 [KRX-104161]
94.8
